Target: T1, α1-syntrophin (SNTA) PDZ domain (UniProt Q13424 87-170)
T1 construct: α1-syntrophin (SNTA), PDZ domain; The methods elute GST proteins with glutathione; TEV cleavage is told only for crystallography; source: E. coli Rosetta (DE3), purified (glutathione agarose)
T1 sequence (looked up): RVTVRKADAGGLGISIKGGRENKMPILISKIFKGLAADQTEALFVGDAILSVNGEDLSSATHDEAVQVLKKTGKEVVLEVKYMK
Assay: BLI; Octet Red 96; 50 nM biotin-labeled α1D-CT peptide immobilised on streptavidin probes, then biocytin; serial dilutions of purified PDZ proteins as analytes until steady state; 20 mM Tris-HCl pH 8.0, 200 mM NaCl, 0.1% bovine serum albumin
Conditions: both partners purified
Ends that are not written are not given here.
Recorded metric: pKd
Remember the convention: pKd equals -log10 of concentration in molar.

Noted for GATCQAYELADYSNLRETDI (peptide, UniProt P25100 553-572, looked up, also: biotin label (position not given here), α1D-adrenergic receptor, distal (last) 20 amino acids of the C-terminus; also called α1D-CT; α1D-AR C-terminal PDZ ligand; source: synthetic peptide, bought: BioMatik) [biotin-labeled peptide containing the last 20 amino acids of the α1D-adrenergic receptor C-terminus] : its pKd reads 6.25
